Measured pIC50 of individual entries
Target: T1, human TIGIT expressed on CHO-K1 cells (human, UniProt Q495A1 22-244)
T1 construct: whole, on cells; also called human TIGIT-CHO-K1 cells; human TIGIT over-expressing cell line
T1 sequence (looked up): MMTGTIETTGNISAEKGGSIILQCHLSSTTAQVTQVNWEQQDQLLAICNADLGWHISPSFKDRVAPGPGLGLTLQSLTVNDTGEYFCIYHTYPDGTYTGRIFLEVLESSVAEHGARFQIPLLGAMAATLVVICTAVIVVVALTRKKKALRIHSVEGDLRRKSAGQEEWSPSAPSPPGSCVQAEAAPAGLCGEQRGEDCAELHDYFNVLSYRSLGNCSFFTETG
Test: flow cytometry competition: biotinylated CD155-Fc on human TIGIT-CHO-K1 cells
Remember, pIC50 is on a log scale: it is -log10 of the molar concentration.

Solved entries (count: 3):
# BINDER, pIC50
measured = [
    ("TIGIT-3 chimeric antibody (antibody, human IgG1, kappa, V domains shown, also called 3VH + 3VL) VH: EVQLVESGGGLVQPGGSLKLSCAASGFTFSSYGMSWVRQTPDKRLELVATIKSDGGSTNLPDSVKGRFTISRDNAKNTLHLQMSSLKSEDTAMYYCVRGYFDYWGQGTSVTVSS VL: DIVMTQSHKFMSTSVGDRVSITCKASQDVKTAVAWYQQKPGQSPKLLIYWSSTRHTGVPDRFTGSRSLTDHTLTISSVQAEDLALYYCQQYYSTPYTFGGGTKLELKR", 9.42),
    ("TIGIT-94 chimeric antibody (antibody, human IgG1, kappa, V domains shown, Full-length chimeric IgG1 kappa) VH: EVKLVESGGGLVKPGGSLKLSCAASGFTFSTYTMSWVRQTPEKRLEWVATISSGGTYTHYPDSVKGRFTISRDNAKNTLYLQMSSLKSEDTAMYYCTRWFLSLYAMDYWGQGTSVTVSS VL: DIVMTQSTSSLSASLGDRVTISCRASQDINNFLNWYQQKPAGTVDLLIYYTSRLHSGVPSRFSGSGSGTDYSLTISNLDQEDIATYFCQQGNTFPYTFGGGTRLEIKR", 9.14),
    ("Hu1217-2-2 (anti-TIGIT positive control antibody) (antibody, V domains shown) VH: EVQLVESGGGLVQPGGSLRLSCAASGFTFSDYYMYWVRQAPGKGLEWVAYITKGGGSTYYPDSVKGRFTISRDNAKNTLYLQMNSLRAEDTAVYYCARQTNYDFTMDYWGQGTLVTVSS VL: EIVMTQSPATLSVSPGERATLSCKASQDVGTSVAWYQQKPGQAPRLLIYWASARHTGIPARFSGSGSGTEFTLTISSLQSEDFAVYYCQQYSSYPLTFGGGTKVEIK", 9.09),
]

[in] Which pIC50 is reported for this binder? TIGIT-19 chimeric antibody (antibody, human IgG1, kappa, V domains shown, also called 19VH + 19VL) VH: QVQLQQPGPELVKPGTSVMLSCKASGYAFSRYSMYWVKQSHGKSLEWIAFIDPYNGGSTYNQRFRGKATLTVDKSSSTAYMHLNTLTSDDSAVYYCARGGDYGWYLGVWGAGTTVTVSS VL: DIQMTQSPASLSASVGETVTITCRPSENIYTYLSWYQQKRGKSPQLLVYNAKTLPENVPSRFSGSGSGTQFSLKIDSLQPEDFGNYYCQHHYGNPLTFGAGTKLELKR
[out] 9.40

[in] Same thing, different binder: TIGIT-100 chimeric antibody (antibody, human IgG1, kappa, V domains shown, Full-length chimeric IgG1 kappa) VH: QVQLQQPGPELVKPGASVKISCKASGYSFTDYNMNWVKQSNGKSLEWIGVINPNSGTDNYNQKFKGKATLTVDQSSSTAYMQLNSLTSEDSAVYFCARGVYFGNYFDSWGQGTTLTVSS VL: DIVMTQSPASLSASVGETVTITCRASENIYSSLAWYQQKQGKSPQLLVFNAKTLTEGVPSRFSGSGSGTQFSLKINSLQPEDFGSYYCQHHYGAPWTFGGGTKLEIKR
[out] 9.09

[in] Same thing, different binder: TIGIT-52 chimeric antibody (antibody, human IgG1, kappa, V domains shown, Full-length chimeric IgG1 kappa) VH: EVQLVESGGGLVEPGGSLTLSCVASGFTFSSFAMSWVRQTPEKRLEWVATISNGGSYTYYPDTVKGRFTISRDNAKNTLFLQMSSLRSEDTAMYYCARPYYGTTYGYYFDFWGQGTTLTVSS VL: QIVLTQSPASLAVSLGQRATISCRASESVDRNGNSFMHWYQQKPGQPPKLLIYLASNLESGVPARFSGSGSRTDFTLTIDPVEADDAATYYCQQNNEDPLTFGAGTKLELKR
[out] 7.86
